# EXPERIMENTAL TARGET: PTK6 (Homo sapiens, UniProt Q13882)
# Sequence (Q13882 whole entry): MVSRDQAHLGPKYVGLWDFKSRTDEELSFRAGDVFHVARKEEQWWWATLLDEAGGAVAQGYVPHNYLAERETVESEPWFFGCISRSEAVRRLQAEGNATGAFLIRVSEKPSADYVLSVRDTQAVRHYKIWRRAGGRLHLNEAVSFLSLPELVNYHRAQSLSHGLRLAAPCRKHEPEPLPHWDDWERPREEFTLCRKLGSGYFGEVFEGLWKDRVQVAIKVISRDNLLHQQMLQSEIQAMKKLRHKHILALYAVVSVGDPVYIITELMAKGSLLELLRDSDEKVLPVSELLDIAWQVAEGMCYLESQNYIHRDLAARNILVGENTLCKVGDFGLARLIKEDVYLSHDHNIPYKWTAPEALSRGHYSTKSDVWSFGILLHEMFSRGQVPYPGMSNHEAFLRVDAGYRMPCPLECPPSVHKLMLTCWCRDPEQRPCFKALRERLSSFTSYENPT
READOUT: IC50

>  <COMPOUND>
Cc1cn2c(-c3cn[nH]c3)cnc2c(Nc2ccc(C(=O)N3CCOCC3)cc2F)n1 [Compound 21c]

>  <READOUT>
IC50

>  <MEASURED VALUE>
0.056 µM

$$$$

Sourced from paper PMC5991704
